pIC50: −log10 of the molar value.
Field: pIC50. System: XIAP (Homo sapiens). Provenance: assorted publications.

{"smiles record": "CN[C@@H](C)C(=O)N[C@H]1CCCC[C@H]2CC[C@@H](C(=O)N[C@@H](c3ccccc3)c3ccc(CCCNC(=O)NCCCc4ccc([C@@H](NC(=O)[C@@H]5CC[C@@H]6CCCC[C@H](NC(=O)[C@@H](C)NC)C(=O)N65)c5ccccc5)cc4)cc3)N2C1=O", "pIC50": "> 7.00"}
{"smiles record": "CN[C@@H](C)C(=O)N[C@H](C(=O)N1CCN(C(=O)c2cc3cc(F)c(F)cc3n2CCOCCOCc2ccccc2)CC1)C1CCCCC1", "pIC50": "4.52 to 5.52"}
{"smiles record": "CN[C@@H](C)C(=O)N[C@H](C(=O)N1CCN(C(=O)c2c(C(=O)N(C)CCOCCOCCOc3cc(CN4CCC(Oc5ccnc6ccsc56)CC4)on3)c3cc(F)ccc3n2C)CC1)C(C)(C)O", "pIC50": "5.52 to 6.52"}
{"smiles record": "CN[C@@H](C)C(=O)N[C@H]1CC[C@@H](n2cc(COCc3cn([C@@H]4CC[C@H](NC(=O)[C@H](C)NC)C(=O)N5[C@H](CC[C@H]5C(=O)NC(c5ccccc5)c5ccccc5)C4)nn3)nn2)C[C@H]2CC[C@@H](C(=O)NC(c3ccccc3)c3ccccc3)N2C1=O", "pIC50": "> 8.00"}

###

pIC50: −log10 of the molar value.
Field: pIC50. System: XIAP (Homo sapiens, UniProt P98170). Provenance: assorted publications.
experimental endpoint: pIC50

{"smiles record": "CN[C@@H](C)C(=O)N[C@H](C(=O)N1CCN(C(=O)c2c(C(=O)NCCOCCOCCOc3cc(CN4CCC(Oc5ccnc6ccsc56)CC4)on3)c3cc(F)c(F)cc3n2C)CC1)C1CCCCC1", "experimental endpoint": "pIC50", "obs value": "5.52 to 6.52"}
{"smiles record": "C[C@H](NCCO)C(=O)N[C@H]1CCCC[C@H]2CC[C@@H](C(=O)N[C@@H](c3ccccc3)c3cn(CCN4CCN(CCn5cc([C@@H](NC(=O)[C@@H]6CC[C@@H]7CCCC[C@H](NC(=O)[C@H](C)NCCO)C(=O)N76)c6ccccc6)nn5)CC4)nn3)N2C1=O", "experimental endpoint": "pIC50", "obs value": "> 7.00"}
{"smiles record": "CN[C@@H](C)C(=O)N[C@H](C(=O)N1CCN(C(=O)c2cc3cc(F)c(F)cc3n2CCOC)CC1)C1CCCCC1", "experimental endpoint": "pIC50", "obs value": "4.52 to 5.52"}
